system: Mus musculus; test: fAUC in mouse at 3 mg/kg, iv or 10 mg/kg, po; assay type: ADME, organism-based; details: in vivo

- SMI: "C[C@@H]1C(=O)NN=C2COc3cc(-c4ccccc4F)c([C@@H]4CCN(C)C[C@@H]4C)cc3N21"
  fAUC [ng·h/mL]: 155
- SMI: "C[C@@H]1C(=O)NN=C2COc3cc(-c4ccccc4)c(N(C)C4(C)CN(C)C4)cc3N21"
  fAUC [ng·h/mL]: 37.3
- SMI: "C[C@@H]1CN(C)CC[C@@H]1c1cc2c(cc1-c1ccccc1F)OCC1=NNC(=O)[C@@H](C)N12"
  fAUC [ng·h/mL]: 473
- SMI: "C[C@@H]1C(=O)NN=C2COc3cc(-c4ccccc4F)c([C@H]4CCN(C)C4)cc3N21"
  fAUC [ng·h/mL]: 120
- SMI: "C[C@@H]1C(=O)NN=C2COc3cc(-c4ccccc4F)c(N(C)C4(C)CN(C)C4)cc3N21"
  fAUC [ng·h/mL]: 102

###

system: Mus musculus; assay: fCmax in mouse at 3 mg/kg, iv or 10 mg/kg, po; assay type: ADME, organism-based; settings: in vivo
Reported fCmax values for a set of compounds

- COMPOUND: "C[C@@H]1C(=O)NN=C2COc3cc(-c4ccccc4F)c([C@@H]4CCN(C)C[C@@H]4C)cc3N21"
  fCmax: "54.6 ng/mL"
- COMPOUND: "Cc1ccccc1-c1cc2c(cc1[C@@H]1CCN(C)C[C@@H]1C)N1C(=NNC(=O)[C@H]1C)CO2"
  fCmax: "120 ng/mL"
- COMPOUND: "CCN1CC[C@@H](c2cc3c(cc2-c2ccccc2F)OCC2=NNC(=O)[C@@H](C)N23)[C@@H](C)C1"
  fCmax: "42.9 ng/mL"
- COMPOUND: "COc1cccc(-c2cc3c(cc2[C@@H]2CCN(C)C[C@@H]2C)N2C(=NNC(=O)[C@H]2C)CO3)c1"
  fCmax: "39.8 ng/mL"
- COMPOUND: "Cc1ccc(-c2cc3c(cc2[C@@H]2CCN(C)C[C@@H]2C)N2C(=NNC(=O)[C@H]2C)CO3)cc1"
  fCmax: "17.4 ng/mL"
- COMPOUND: "C[C@@H]1C(=O)NN=C2COc3cc(-c4ccccc4)c(N(C)C4(C)CN(C)C4)cc3N21"
  fCmax: "14.5 ng/mL"
- COMPOUND: "C[C@@H]1C(=O)NN=C2COc3cc(-c4ccccc4F)c(C4CCN(C)CC4)cc3N21"
  fCmax: "67 ng/mL"
- COMPOUND: "C[C@@H]1C(=O)NN=C2COc3cc(-c4ccc5c(c4)OCCO5)c([C@@H]4CCN(C)C[C@@H]4C)cc3N21"
  fCmax: "96.2 ng/mL"
- COMPOUND: "C[C@@H]1C(=O)NN=C2COc3cc(-c4ccccc4F)c(C4CCN(C)CC4(C)C)cc3N21 (some centres not stated)"
  fCmax: "24.1 ng/mL"
- COMPOUND: "COc1ccc(-c2cc3c(cc2[C@@H]2CCN(C)C[C@@H]2C)N2C(=NNC(=O)[C@H]2C)CO3)cc1"
  fCmax: "90.8 ng/mL"
- COMPOUND: "C[C@@H]1C(=O)NN=C2COc3cc(-c4ccccc4F)c([C@@H]4CCNC[C@@H]4C)cc3N21"
  fCmax: "61.9 ng/mL"
